biological target: CFTR Cl^- channel (Homo sapiens); conditions: read-out: apparent EC50 of stimulation of Cl- current; in the presence of ATP, PKA-phosphorylated channels
Sequence (P13569 whole entry): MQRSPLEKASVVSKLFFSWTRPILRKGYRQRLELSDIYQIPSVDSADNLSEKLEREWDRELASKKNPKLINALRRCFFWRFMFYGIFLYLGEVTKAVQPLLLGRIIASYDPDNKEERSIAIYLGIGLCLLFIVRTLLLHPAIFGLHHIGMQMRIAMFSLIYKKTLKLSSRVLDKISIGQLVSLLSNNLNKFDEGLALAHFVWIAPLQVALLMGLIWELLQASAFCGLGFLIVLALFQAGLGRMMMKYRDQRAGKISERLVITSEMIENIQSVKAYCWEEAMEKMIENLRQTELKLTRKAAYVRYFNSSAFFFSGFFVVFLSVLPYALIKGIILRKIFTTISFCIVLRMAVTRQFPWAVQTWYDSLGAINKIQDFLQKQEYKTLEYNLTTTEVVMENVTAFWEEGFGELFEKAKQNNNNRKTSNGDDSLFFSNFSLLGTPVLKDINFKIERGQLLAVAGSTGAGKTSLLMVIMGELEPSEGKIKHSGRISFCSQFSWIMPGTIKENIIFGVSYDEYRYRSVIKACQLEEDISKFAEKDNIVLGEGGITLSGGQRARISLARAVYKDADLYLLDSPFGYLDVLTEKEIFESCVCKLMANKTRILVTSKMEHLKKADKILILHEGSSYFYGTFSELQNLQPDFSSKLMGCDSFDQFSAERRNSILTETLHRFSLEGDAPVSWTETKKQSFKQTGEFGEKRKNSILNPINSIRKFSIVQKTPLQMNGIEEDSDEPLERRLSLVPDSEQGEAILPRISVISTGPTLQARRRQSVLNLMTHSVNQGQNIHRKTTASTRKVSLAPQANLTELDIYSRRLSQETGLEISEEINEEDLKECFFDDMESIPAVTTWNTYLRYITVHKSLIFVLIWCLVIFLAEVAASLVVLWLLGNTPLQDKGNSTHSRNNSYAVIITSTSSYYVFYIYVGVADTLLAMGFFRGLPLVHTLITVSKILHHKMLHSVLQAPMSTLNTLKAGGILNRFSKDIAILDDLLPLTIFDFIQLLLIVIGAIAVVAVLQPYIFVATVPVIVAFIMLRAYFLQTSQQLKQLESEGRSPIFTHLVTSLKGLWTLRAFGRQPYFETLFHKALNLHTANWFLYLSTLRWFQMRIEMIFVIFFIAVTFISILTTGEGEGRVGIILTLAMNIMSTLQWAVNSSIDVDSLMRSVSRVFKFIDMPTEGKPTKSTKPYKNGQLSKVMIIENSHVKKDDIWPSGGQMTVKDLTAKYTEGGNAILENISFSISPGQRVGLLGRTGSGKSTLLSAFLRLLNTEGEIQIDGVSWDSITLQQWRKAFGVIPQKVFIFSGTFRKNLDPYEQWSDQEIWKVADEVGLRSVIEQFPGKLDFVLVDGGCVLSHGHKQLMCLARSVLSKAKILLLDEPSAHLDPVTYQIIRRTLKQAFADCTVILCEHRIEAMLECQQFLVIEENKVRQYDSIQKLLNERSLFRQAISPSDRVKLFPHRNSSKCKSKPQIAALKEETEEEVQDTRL
pEC50: −log10 of the molar value.
REPORTED ENDPOINT: pEC50

Qu. Given O=P([O-])([O-])OP(=O)([O-])[O-].[Na+].[Na+].[Na+].[Na+] [PPi, Sodium pyrophosphate] , state its recorded pEC50.
Ans. ~3.30
